The measured values listed here are drawn from patent US11447511B2.

- test details: Stability in human liver S9 fraction (HLS9)
- Format: in vitro ADME
- assay conditions: human liver S9 0.4 mg protein/mL, 5 μM test compound, 37° C.
observation type: CLint Liver S9 (µL/min/mg)
Numbers only; they are read as µL/min/mg.

CCC[C@H](C)OC(=O)[C@H](C)NP(=O)(OC[C@H]1OC[C@@H](n2ccc(N)nc2=O)O1)Oc1ccccc1 (single isomer, unassigned; dia-2) [20 dia-2]
25
Nc1ccn([C@@H]2CO[C@H](COP(=O)(N[C@@H](Cc3ccccc3)C(=O)OCc3ccccc3)Oc3cccc(C4CC4)c3)O2)c(=O)n1 (single isomer, unassigned; dia-1) [12 dia-1]
182

Please turn your attention to the following entry.
What does the data say about its CLint Liver S9? Entry: CCC(CC)OC(=O)[C@H](C)NP(=O)(OC[C@H]1OC[C@@H](n2ccc(N)nc2=O)O1)Oc1ccccc1 (single isomer, unassigned; dia-1) [21 dia-1]
61
